run.description: total protein half-life in vivo (active degradation + dilution); higher = more stable protein
measurement.setup: wild type E. coli NCM3722; growth: P-lim chemostat; doubling time 12 h

construct.sequence | endpoint.unit | total protein half-life in vivo
MFDIGVNLTSSQFAKDRDDVVACAFDAGVNGLLITGTNLRESQQAQKLARQYSSCWSTAGVHPHDSSQWQAATEEAIIELAAQPEVVAIGECGLDFNRNFSTPEEQERAFVAQLRIAADLNMPVFMHCRDAHERFMTLLEPWLDKLPGAVLHCFTGTREEMQACVAHGIYIGITGWVCDERRGLELRELLPLIPAEKLLIETDAPYLLPRDLTPKPSSRRNEPAHLPHILQRIAHWRGEDAAWLAATTDANVKTLFGIAF | h | 9.01
MALLPDKEKLLRNFLRCANWEEKYLYIIELGQRLPELRDEDRSPQNSIQGCQSQVWIVMRQNAQGIIELQGDSDAAIVKGLIAVVFILYDQMTPQDIVNFDVRPWFEKMALTQHLTPSRSQGLEAMIRAIRAKAAALS | h | 10.1
MSCEELEIVWNNIKAEARTLADCEPMLASFYHATLLKHENLGSALSYMLANKLSSPIMPAIAIREVVEEAYAADPEMIASAACDIQAVRTRDPAVDKYSTPLLYLKGFHALQAYRIGHWLWNQGRRALAIFLQNQVSVTFQVDIHPAAKIGRGIMLDHATGIVVGETAVIENDVSILQSVTLGGTGKSGGDRHPKIREGVMIGAGAKILGNIEVGRGAKIGAGSVVLQPVPPHTTAAGVPARIVGKPDSDKPSMDMDQHFNGINHTFEYGDGI [P0A9D4] | h | 11.5
MKMIEVVAAIIERDGKILLAQRPAQSDQAGLWEFAGGKVEPDESQRQALVRELREELGIEATVGEYVASHQREVSGRIIHLHAWHVPDFHGTLQAHEHQALVWCSPEEALQYPLAPADIPLLEAFMALRAARPAD | h | 8.52
MSKKIAVLITDEFEDSEFTSPADEFRKAGHEVITIEKQAGKTVKGKKGEASVTIDKSIDEVTPAEFDALLLPGGHSPDYLRGDNRFVTFTRDFVNSGKPVFAICHGPQLLISADVIRGRKLTAVKPIIIDVKNAGAEFYDQEVVVDKDQLVTSRTPDDLPAFNREALRLLGA | h | 10.6
MPKLRLIGLTLLALSATAVSHAEETRYVSDELNTWVRSGPGDHYRLVGTVNAGEEVTLLQTDANTNYAQVKDSSGRTAWIPLKQLSTEPSLRSRVPDLENQVKTLTDKLTNIDNTWNQRTAEMQQKVAQSDSVINGLKEENQKLKNELIVAQKKVDAASVQLDDKQRTIIMQWFMYGGGVLGLGLLLGLVLPHLIPSRKRKDRWMN [P0ADT8] | h | 12.5
MVSRKRNSVIYRFASLLLVLMLSACSALQGTPQPAPPVTDHPQEIRRDQTQGLQRIGSVSTMVRGSPDDALAEIKAKAVAAKADYYVVVMVDETIVTGQWYSQAILYRK | h | 14.8
MTHFSQQDNFSVAARVLGALFYYAPESAEAAPLVAVLTSDGWETQWPLPEASLAPLVTAFQTQCEETHAQAWQRLFVGPWALPSPPWGSVWLDRESVLFGDSTLALRQWMREKGIQFEMKQNEPEDHFGSLLLMAAWLAENGRQTECEELLAWHLFPWSTRFLDVFIEKAEHPFYRALGELARLTLAQWQSQLLIPVAVKPLFR | h | 11.3

Data provenance is the supplement of paper PMC11246515.
